biological target: DNA repair and recombination protein RAD54-like (Homo sapiens); assay: inhibitors of human RAD54 branch migration, primary screen, biochemical, fluorescence, single point (AID 602329); details: RAD54 Holliday junction branch migration, FAM/BHQ fluorescence; at 10.4 µM; hits give high values;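 also: 0% = median of neutral control wells and 100% = median of positive control wells; inhibitors cause a drop in the FAM fluorescence signal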
The campaign covered roughly 360,000 compounds. About 510 (0.14%) were called active. The sample holds actives, similar compounds and a random draw of the others, so the mix is not that of the screen.
# inhibition per record follows
experimental_readout: inhibition (%)

| structure_smiles | test_result |
| --- | --- |
| CCN(C[C@@H]1[C@@H](c2ccccc2)[C@H](CO)N1C(C)=O)C(=O)NC(C)C | -5 |
| C[C@@H]1CN([C@@H](C)CO)C(=O)c2cc(NS(=O)(=O)c3ccccc3)ccc2O[C@@H](C)CCCCO[C@H]1CN(C)C(=O)C1CCCCC1 | -16.2 |
| CCN(CC)CCNc1ccc(Cl)cc1[N+](=O)[O-] | 7.16 |
| COc1ccc(NC(=O)N(C)C[C@H]2OCCCC[C@@H](C)Oc3ccc(NC(=O)c4ccncc4)cc3C(=O)N([C@@H](C)CO)C[C@H]2C)cc1 | 2.64 |
| C[C@@H]1CN([C@@H](C)CO)C(=O)Cc2cc(NC(=O)Nc3ccc4c(c3)OCO4)ccc2O[C@@H]1CN(C)S(=O)(=O)c1ccc(Cl)cc1 | 1.58 |
| O=C(NCCN1CCN(Cc2ccccc2)CC1)c1cc2c(=O)[nH]c3ccccc3c2s1 | -0.046 |
| CCC(=O)N1C[C@H](C)[C@H](OC)CN(C)C(=O)c2ccc(NC(=O)Nc3ccccc3)cc2OC[C@H]1C | -3.3 |
| CO[C@@H]1CN(C)C(=O)c2cc(NC(=O)C3CCCC3)ccc2OC[C@@H](C)N(Cc2ccc(F)cc2)C[C@H]1C | -4.74 |

----------
# inhibition per record follows
molecular target: DNA repair and recombination protein RAD54-like (Homo sapiens) (UniProt Q92698); experiment: inhibitors of human RAD54 branch migration, primary screen, biochemical, fluorescence, single point (AID 602329); conditions: RAD54 Holliday junction branch migration, FAM/BHQ fluorescence; at 10.4 µM; hits give high values;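 also: 0% = median of neutral control wells and 100% = median of positive control wells; inhibitors cause a drop in the FAM fluorescence signal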
Sequence (Q92698 whole entry, looked up): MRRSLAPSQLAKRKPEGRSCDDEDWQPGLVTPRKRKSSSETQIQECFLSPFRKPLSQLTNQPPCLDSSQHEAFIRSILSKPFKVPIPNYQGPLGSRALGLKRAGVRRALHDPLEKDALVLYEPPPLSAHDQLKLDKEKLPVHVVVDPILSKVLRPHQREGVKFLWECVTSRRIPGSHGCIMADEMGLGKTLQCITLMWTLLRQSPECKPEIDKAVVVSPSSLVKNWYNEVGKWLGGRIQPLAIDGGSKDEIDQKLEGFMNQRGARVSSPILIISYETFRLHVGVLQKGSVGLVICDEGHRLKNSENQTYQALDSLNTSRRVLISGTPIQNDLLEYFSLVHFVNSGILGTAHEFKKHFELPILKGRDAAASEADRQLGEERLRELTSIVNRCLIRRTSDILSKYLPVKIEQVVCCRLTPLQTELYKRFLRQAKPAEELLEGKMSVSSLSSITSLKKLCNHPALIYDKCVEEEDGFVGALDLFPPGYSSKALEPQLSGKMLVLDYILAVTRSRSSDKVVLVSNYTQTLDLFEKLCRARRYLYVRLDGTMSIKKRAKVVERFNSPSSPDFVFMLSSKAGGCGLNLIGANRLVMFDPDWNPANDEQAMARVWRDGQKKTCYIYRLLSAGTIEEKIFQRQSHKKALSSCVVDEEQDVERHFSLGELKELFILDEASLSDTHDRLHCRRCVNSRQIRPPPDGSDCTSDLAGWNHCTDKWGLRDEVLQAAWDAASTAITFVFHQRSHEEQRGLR
Screen size: about 360,000 compounds; about 510 (0.14%) were called active. What follows is part of a selection rich in actives, with near analogues and random picks from the rest.
experimental_readout: inhibition

| compound | test_result |
| --- | --- |
| CCN1CCN(CCNC(=O)c2ccc3c(c2)NC(=O)/C(=C\c2ccc(OC)c(OC)c2)S3)CC1 | 72.7% (active) |
| COc1ccc(C(=O)Nc2ccc3c(c2)OC[C@H](C)N(C(C)=O)C[C@@H](C)[C@H](OC)CN(C)C3=O)cc1 | -4.9% (inactive) |
| C[C@@H]1CN([C@@H](C)CO)C(=O)c2ccccc2-c2ccccc2CO[C@H]1CN(C)C(=O)Nc1ccccc1 | 2.07% (inactive) |
| COc1cccc(NC(=O)N2C[C@@H](O)COC[C@@H]3O[C@@H](CC(=O)NC4CCC4)CC[C@H]32)c1 | -4.41% (inactive) |
| O=C(C[C@H]1CC[C@@H](NC(=O)c2ccccc2)[C@@H](CO)O1)NCc1ccncn1 | -7.18% (inactive) |
| COc1ccccc1NC(=O)N1[C@H](C#N)[C@H](c2ccccc2)[C@H]1CO | 10.5% (inactive) |
| COc1ccc(CCNC(=O)c2ccc3c(c2)NC(=O)C(N2CCOCC2)S3)cc1OC (configuration not stated) | -1.36% (inactive) |

FYI, the data here is from PubChem BioAssay AID602329.
